- target-entity: Cyclin A (Homo sapiens, UniProt P20248)
- Sequence (P20248 whole entry): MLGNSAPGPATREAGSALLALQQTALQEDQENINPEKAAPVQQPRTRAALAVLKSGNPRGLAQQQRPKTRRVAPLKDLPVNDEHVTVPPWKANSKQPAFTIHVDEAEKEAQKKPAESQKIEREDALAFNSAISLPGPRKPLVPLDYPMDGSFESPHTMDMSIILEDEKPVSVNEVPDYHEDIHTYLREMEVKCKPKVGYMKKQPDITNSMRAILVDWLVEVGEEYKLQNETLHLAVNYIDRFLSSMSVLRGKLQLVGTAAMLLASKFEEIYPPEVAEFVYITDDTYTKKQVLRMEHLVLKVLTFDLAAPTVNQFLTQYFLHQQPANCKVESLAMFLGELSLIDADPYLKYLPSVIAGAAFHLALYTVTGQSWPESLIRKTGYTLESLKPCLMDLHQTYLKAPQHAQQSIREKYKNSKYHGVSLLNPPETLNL
- method-description: Cyclin A binding assay, immobilised biotinyl-Ahx-[…]NH2
- condition-summary: Phe159 substitutions; relative to H-His-Ala-Lys-Arg-Arg-Leu-Ile-Phe-NH2 (=1)
Square brackets hold non-standard residues; d marks the D form. 2Nal = N[C@@H](Cc1ccc2ccccc2c1)C(=O)O; Cha = N[C@@H](CC1CCCCC1)C(=O)O
Would you kindly list Relative activity Cyclin A Binding for each of these substances?

GET /values?readout=Relative activity Cyclin A Binding&item= H-His-Ala-Lys-Arg-Arg-Leu-Ile-2Nap-NH2 (H-HAKRRLI[2Nal]-NH2; SMILES CC[C@H](C)[C@H](NC(=O)[C@H](CC(C)C)NC(=O)[C@H](CCCNC(=N)N)NC(=O)[C@H](CCCNC(=N)N)NC(=O)[C@H](CCCCN)NC(=O)[C@H](C)NC(=O)[C@@H](N)Cc1c[nH]cn1)C(=O)N[C@@H](Cc1ccc2ccccc2c1)C(N)=O)
0.7

Could you tell me which Relative activity Cyclin A Binding is on file for H-His-Ala-Lys-Arg-Arg-Leu-Ile-Cha-NH2 (H-HAKRRLI[Cha]-NH2; SMILES CC[C@H](C)[C@H](NC(=O)[C@H](CC(C)C)NC(=O)[C@H](CCCNC(=N)N)NC(=O)[C@H](CCCNC(=N)N)NC(=O)[C@H](CCCCN)NC(=O)[C@H](C)NC(=O)[C@@H](N)Cc1c[nH]cn1)C(=O)N[C@@H](CC1CCCCC1)C(N)=O) ?
<0.1

###

- target-entity: Cyclin A (Homo sapiens, UniProt P20248)
- method-description: Cyclin A binding assay, immobilised biotinyl-Ahx-[…]NH2
- condition-summary: Ile158 substitutions; relative to H-His-Ala-Lys-Arg-Arg-Leu-Ile-Phe-NH2 (=1)
Square brackets hold non-standard residues; d marks the D form. Ends that are not written are not given here. Cha = N[C@@H](CC1CCCCC1)C(=O)O; Nle = CCCC[C@H](N)C(=O)O; Nva = CCC[C@H](N)C(=O)O
metric: Relative activity Cyclin A Binding

So what's the measured Relative activity Cyclin A Binding for this one? H-His-Ala-Lys-Arg-Arg-Leu-Cha-Phe-NH2 (H-HAKRRL[Cha]F-NH2; SMILES CC(C)C[C@H](NC(=O)[C@H](CCCNC(=N)N)NC(=O)[C@H](CCCNC(=N)N)NC(=O)[C@H](CCCCN)NC(=O)[C@H](C)NC(=O)[C@@H](N)Cc1c[nH]cn1)C(=O)N[C@@H](CC1CCCCC1)C(=O)N[C@@H](Cc1ccccc1)C(N)=O)
0.5

Could you share which Relative activity Cyclin A Binding value was measured for H-His-Ala-Lys-Arg-Arg-Leu-Nle Phe-NH2 (H-HAKRRL[Nle]F-NH2; SMILES CCCC[C@H](NC(=O)[C@H](CC(C)C)NC(=O)[C@H](CCCNC(=N)N)NC(=O)[C@H](CCCNC(=N)N)NC(=O)[C@H](CCCCN)NC(=O)[C@H](C)NC(=O)[C@@H](N)Cc1c[nH]cn1)C(=O)N[C@@H](Cc1ccccc1)C(N)=O) ?
0.3

So what does the record say about Relative activity Cyclin A Binding for HAKRRLFF-NH2 ?
0.4

Consider the substance H-His-Ala-Lys-Arg-Arg-Leu-Nva Phe-NH2 (H-HAKRRL[Nva]F-NH2; SMILES CCC[C@H](NC(=O)[C@H](CC(C)C)NC(=O)[C@H](CCCNC(=N)N)NC(=O)[C@H](CCCNC(=N)N)NC(=O)[C@H](CCCCN)NC(=O)[C@H](C)NC(=O)[C@@H](N)Cc1c[nH]cn1)C(=O)N[C@@H](Cc1ccccc1)C(N)=O) and give its measured Relative activity Cyclin A Binding.
0.6
